- System: 817829-284-R-J1-PDC complex spheroid viability
- method-notes: Anticancer human tumor 817829-284-R-J1-PDC patient-derived colon adenocarcinoma cell line growth inhibition [POLQ]; active means viability on the fitted dose curve at most 10% of control; inactive means the rest
- condition-description: second compound 0.0316 µM; first compound 0.1 µM
Could you please pick one outcome from this set? active, inactive

O=c1[nH]cc(F)c(=O)[nH]1 + COC1C(OC(N)=O)C(O)C(Oc2ccc3c(O)c(NC(=O)c4ccc(O)c(CC=C(C)C)c4)c(=O)oc3c2C)OC1(C)C: inactive

Query: What outcome does the record of this test show for CCc1c2c(nc3ccc(O)cc13)-c1cc3c(c(=O)n1C2)COC(=O)[C@]3(O)CC + Cc1cccc(N(C)C(=O)C2C(O)CCN2c2nc(C)cc(C(F)(F)F)c2C#N)c1 ?
Reply: active

Query: Assay outcome for CCc1cc2c(N3CCc4c(cc(Cn5ccnc5)cc4-c4cn(C)nc4C(F)(F)F)C3=O)ccnc2c(OC)n1 + Cc1cccc(N(C)C(=O)C2C(O)CCN2c2nc(C)cc(C(F)(F)F)c2C#N)c1 : what was it?
Reply: inactive

Query: Assay outcome for Nc1ccn(C2OC(CO)C(O)C2(F)F)c(=O)n1 (stereo unspecified) + Cc1cccc(N(C)C(=O)C2C(O)CCN2c2nc(C)cc(C(F)(F)F)c2C#N)c1 : what was it?
Reply: active

Query: Just curious, what result did CC[C@@]1(O)C(=O)OCc2c1cc1n(c2=O)Cc2cc3c(CN(C)C)c(O)ccc3nc2-1 + Nc1ccc(C#CCN(C(=O)Cc2ncc(C(F)(F)F)cc2C(F)(F)F)c2ccc(F)cc2)nn1 get here?
Reply: inactive

Query: Per the records of this test, what outcome belongs to O=C(c1cc(Cc2n[nH]c(=O)c3ccccc23)ccc1F)N1CCN(C(=O)C2CC2)CC1 + Cc1cccc(N(C)C(=O)C2C(O)CCN2c2nc(C)cc(C(F)(F)F)c2C#N)c1 ?
Reply: inactive

Query: Fill in: this test's call for CCc1cc2c(N3CCc4c(cc(Cn5ccnc5)cc4-c4cn(C)nc4C(F)(F)F)C3=O)ccnc2c(OC)n1 + COC1C(OC(N)=O)C(O)C(Oc2ccc3c(O)c(NC(=O)c4ccc(O)c(CC=C(C)C)c4)c(=O)oc3c2C)OC1(C)C is ___
Reply: inactive

Query: Write down the call the test reported for this compound. Item: COc1cc2cc(C(=O)CCC(=O)O)sc2cc1OC + COC1C(OC(N)=O)C(O)C(Oc2ccc3c(O)c(NC(=O)c4ccc(O)c(CC=C(C)C)c4)c(=O)oc3c2C)OC1(C)C
Reply: inactive

Query: Would you mind telling me which call this test gave CC1COCCN1c1cc(C2(O)CC3CCC(C2)O3)c2cnn(-c3ccn[nH]3)c2n1 (stereo unspecified) + Cc1cccc(N(C)C(=O)C2C(O)CCN2c2nc(C)cc(C(F)(F)F)c2C#N)c1 ?
Reply: inactive

Query: Entry O=C(c1cc(Cc2n[nH]c(=O)c3ccccc23)ccc1F)N1CCN(C(=O)C2CC2)CC1 + Nc1ccc(C#CCN(C(=O)Cc2ncc(C(F)(F)F)cc2C(F)(F)F)c2ccc(F)cc2)nn1 : call = ?
Reply: inactive

----------
- Test system: 817829-284-R-J1-PDC complex spheroid viability
- method-notes: Anticancer human tumor 817829-284-R-J1-PDC cell line growth inhibition [POLQ];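 further: spheroids exposed to compounds for 7 days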
- condition-description: curve of first compound; second compound 0.316 µM
observed-property: pIC50
In simple prose, pIC50 is minus the logarithm base ten of a concentration in moles per litre.

COc1ccc([C@@H](O)c2cc(-c3ncnc4cc(N5CCOCC5)ccc34)c(F)cc2Cl)nn1 + Nc1ccc(C#CCN(C(=O)Cc2ncc(C(F)(F)F)cc2C(F)(F)F)c2ccc(F)cc2)nn1: 5.92

Query: For the compound CCCS(=O)(=O)Nc1ccc(F)c(C(=O)c2c[nH]c3ncc(-c4ccc(Cl)cc4)cc23)c1F + Cc1cccc(N(C)C(=O)C2C(O)CCN2c2nc(C)cc(C(F)(F)F)c2C#N)c1 , what pIC50 is on record?
Reply: 5.39

Query: // query pIC50 value for entry C=CC(=O)N1CCN(c2nc(=O)n(-c3c(C)ccnc3C(C)C)c3nc(-c4c(O)cccc4F)c(F)cc23)C(C)C1 (stereo unspecified) + Cc1cccc(N(C)C(=O)C2C(O)CCN2c2nc(C)cc(C(F)(F)F)c2C#N)c1
Reply: 5.04

Query: Dear colleague, I am looking for the recorded pIC50 of the following compound: Cn1ncnc1[C@H]1c2n[nH]c(=O)c3cc(F)cc(c23)N[C@@H]1c1ccc(F)cc1 + Cc1cccc(N(C)C(=O)C2C(O)CCN2c2nc(C)cc(C(F)(F)F)c2C#N)c1
Reply: 7.85

Query: pIC50; subject: O=C(c1cc(Cc2n[nH]c(=O)c3ccccc23)ccc1F)N1CCN(C(=O)C2CC2)CC1 + Cc1cccc(N(C)C(=O)C2C(O)CCN2c2nc(C)cc(C(F)(F)F)c2C#N)c1
Reply: 5.58

Query: Which pIC50 is reported for this compound? O=C(Nc1ccc(O)c(NS(=O)(=O)c2ccc(F)cc2)c1)c1ccc(-c2ccccc2)cc1 + Cc1cccc(N(C)C(=O)C2C(O)CCN2c2nc(C)cc(C(F)(F)F)c2C#N)c1
Reply: 5.05

----------
- Test system: 817829-284-R-J1-PDC complex spheroid viability
- method-notes: Anticancer human tumor 817829-284-R-J1-PDC cell line growth inhibition [POLQ];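 further: spheroids exposed to compounds for 7 days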;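 on viability, T/C: 100% = DMSO vehicle-treated spheroids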
- condition-description: second compound 1 µM; first compound 10 µM; stronger effect = lower value
We begin with a simple list: items and their reported viability, T/C.
I only need the number, in %, no unit after it.

// worked examples, viability, T/C included
COc1cc(C2c3cc4c(cc3C(OC3OC5COC(C)OC5C(O)C3O)C3COC(=O)C23)OCO4)cc(OC)c1O (stereo unspecified) + COC1C(OC(N)=O)C(O)C(Oc2ccc3c(O)c(NC(=O)c4ccc(O)c(CC=C(C)C)c4)c(=O)oc3c2C)OC1(C)C: 6.63
O=C(c1cc(Cc2n[nH]c(=O)c3ccccc23)ccc1F)N1CCN(C(=O)C2CC2)CC1 + Nc1ccc(C#CCN(C(=O)Cc2ncc(C(F)(F)F)cc2C(F)(F)F)c2ccc(F)cc2)nn1: 27.8

Query: If you can, please state the reported viability, T/C value of C#Cc1c(F)ccc2cc(O)cc(-c3ncc4c(N5CC6CCC(C5)N6)nc(OCC56CCCN5CC(F)C6)nc4c3F)c12 (stereo unspecified) + Cc1cccc(N(C)C(=O)C2C(O)CCN2c2nc(C)cc(C(F)(F)F)c2C#N)c1 .
Reply: 31.2

Query: Recorded viability, T/C for CCc1cc2c(N3CCc4c(cc(Cn5ccnc5)cc4-c4cn(C)nc4C(F)(F)F)C3=O)cc(C)nc2c(OC)n1 + COC1C(OC(N)=O)C(O)C(Oc2ccc3c(O)c(NC(=O)c4ccc(O)c(CC=C(C)C)c4)c(=O)oc3c2C)OC1(C)C , please?
Reply: 34.7

Query: # get_value(readout='viability, T/C', item= COc1ccc([C@@H](O)c2cc(-c3ncnc4cc(N5CCOCC5)ccc34)c(F)cc2Cl)nn1 + Cc1cccc(N(C)C(=O)C2C(O)CCN2c2nc(C)cc(C(F)(F)F)c2C#N)c1 )
Reply: 21.9

Query: If you can, please state the reported viability, T/C value of CNCc1ccc(-c2[nH]c3cc(F)cc4c3c2CCNC4=O)cc1 + COC1C(OC(N)=O)C(O)C(Oc2ccc3c(O)c(NC(=O)c4ccc(O)c(CC=C(C)C)c4)c(=O)oc3c2C)OC1(C)C .
Reply: 22

Query: Entry O=C(c1cc(Cc2n[nH]c(=O)c3ccccc23)ccc1F)N1CCN(C(=O)C2CC2)CC1 + COC1C(OC(N)=O)C(O)C(Oc2ccc3c(O)c(NC(=O)c4ccc(O)c(CC=C(C)C)c4)c(=O)oc3c2C)OC1(C)C has what viability, T/C?
Reply: 24.3

Query: Name the reported viability, T/C value associated with the molecule CC1COCCN1c1cc(-c2ccnn2C)c2ccnc(-c3ccn[nH]3)c2n1 (stereo unspecified) + Cc1cccc(N(C)C(=O)C2C(O)CCN2c2nc(C)cc(C(F)(F)F)c2C#N)c1
Reply: 2.87

Query: // lookup viability, T/C for CC1COCCN1c1cc(C2(S(C)(=N)=O)CC2)nc(-c2ccnc3[nH]ccc23)n1 (stereo unspecified) + Cc1cccc(N(C)C(=O)C2C(O)CCN2c2nc(C)cc(C(F)(F)F)c2C#N)c1
Reply: 5.65

Query: Value lookup for viability, T/C; key = C=CC(=O)N1CCN(c2nc(=O)n(-c3c(C)ccnc3C(C)C)c3nc(-c4c(O)cccc4F)c(F)cc23)C(C)C1 (stereo unspecified) + Nc1ccc(C#CCN(C(=O)Cc2ncc(C(F)(F)F)cc2C(F)(F)F)c2ccc(F)cc2)nn1
Reply: 52.9

Query: State the recorded viability, T/C for this entry: Nc1ccn(C2OC(CO)C(O)C2(F)F)c(=O)n1 (stereo unspecified) + COC1C(OC(N)=O)C(O)C(Oc2ccc3c(O)c(NC(=O)c4ccc(O)c(CC=C(C)C)c4)c(=O)oc3c2C)OC1(C)C
Reply: 3.14

Query: Please give the measured viability, T/C for this molecule: COc1cc2cc(C(=O)CCC(=O)O)sc2cc1OC + Cc1cccc(N(C)C(=O)C2C(O)CCN2c2nc(C)cc(C(F)(F)F)c2C#N)c1
Reply: 104
